Data provenance: paper PMC7717452

# System: L. braziliensis amastigotes
# Assay name: Macrophage infection assay, L. braziliensis amastigotes
# Assay type: cell-based, Leishmania braziliensis
# Measurement parameters: selectivity index, macrophage CC50 and amastigote EC50
Listing of recorded SI, L. braziliensis amastigotes by entry.
Quantity kind: SI, L. braziliensis amastigotes

1) CN1CCN(C(=O)CN2C(=O)Cc3c([nH]c4ccc(Br)cc34)-c3ccc(Cl)cc32)CC1; 5
2) CCN(CC)CCNC(=O)CN1C(=O)Cc2c([nH]c3ccc(Br)cc23)-c2ccc(Cl)cc21; 2
3) C[C@@H]1[C@H](O)[C@@H](C)/C=C/C=C/C=C/C=C/C=C/C=C/C=C/[C@H](O[C@@H]2O[C@H](C)[C@@H](O)[C@H](N)[C@@H]2O)C[C@@H]2O[C@](O)(C[C@@H](O)C[C@@H](O)[C@H](O)CC[C@@H](O)C[C@@H](O)CC(=O)O[C@H]1C)C[C@H](O)[C@H]2C(=O)O [Amphotericin B, reference compound]; 59
4) O=C(CN1C(=O)Cc2c([nH]c3ccc(Br)cc23)-c2ccc(Cl)cc21)NCCN1CCCCC1; 2
5) O=C(CN1C(=O)Cc2c([nH]c3ccc(Br)cc23)-c2ccc(Cl)cc21)N1CCOCC1; 6

====

# pIC50 per entry
# Test target: LiTryS (Leishmania infantum trypanothione synthetase) (Leishmania infantum)
# Assay name: TryS activity end-point assay
# Type: biochemical
# Measurement parameters: IC50 value, LiTryS, ± 2σ; ∼30 assumed for 50 ± 5% inhibition at 30 µM
pIC50: −log10 of the molar value.
Quantity kind: pIC50

1. O=C(CN1C(=O)Cc2c([nH]c3ccc(Br)cc23)-c2ccc(Cl)cc21)N1CCN(c2ncccn2)CC1; 4.90
2. NC(=O)CN1C(=O)Cc2c([nH]c3ccc(Br)cc23)-c2ccc(Cl)cc21; 5.29
3. O=C(CN1C(=O)Cc2c([nH]c3ccc(Br)cc23)-c2ccc(Cl)cc21)NC(CO)(CO)CO; 5.28
4. CCNC(=O)CN1C(=O)Cc2c([nH]c3ccc(Br)cc23)-c2ccc(Cl)cc21; 5.82
5. O=C(CN1C(=O)Cc2c([nH]c3ccc(Br)cc23)-c2ccc(Cl)cc21)NCCN1CCOCC1; 5.48
6. CCN(CC)C(=O)CN1C(=O)Cc2c([nH]c3ccc(Br)cc23)-c2ccc(Cl)cc21; 6.30

====

# Test target: TbTryS (Trypanosoma brucei brucei, UniProt Q8IEX1)
# Sequence (Q8IEX1 1-627): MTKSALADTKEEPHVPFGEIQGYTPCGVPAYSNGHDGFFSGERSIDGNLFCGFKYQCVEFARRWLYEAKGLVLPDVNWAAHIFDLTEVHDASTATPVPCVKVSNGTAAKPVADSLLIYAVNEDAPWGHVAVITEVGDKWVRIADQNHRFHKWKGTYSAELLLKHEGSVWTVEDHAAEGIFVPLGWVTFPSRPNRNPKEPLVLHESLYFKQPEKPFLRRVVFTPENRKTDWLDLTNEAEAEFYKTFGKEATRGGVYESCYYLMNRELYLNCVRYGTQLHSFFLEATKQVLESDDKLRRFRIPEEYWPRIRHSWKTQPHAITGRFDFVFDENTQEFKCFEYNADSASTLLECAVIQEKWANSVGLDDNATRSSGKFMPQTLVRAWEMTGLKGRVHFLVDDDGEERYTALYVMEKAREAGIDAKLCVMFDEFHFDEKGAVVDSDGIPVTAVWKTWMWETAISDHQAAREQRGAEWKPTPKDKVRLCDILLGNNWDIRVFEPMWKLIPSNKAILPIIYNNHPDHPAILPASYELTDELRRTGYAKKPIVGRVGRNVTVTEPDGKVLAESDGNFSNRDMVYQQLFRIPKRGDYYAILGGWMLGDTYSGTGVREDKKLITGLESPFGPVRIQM
IC50 values by entry
Quantity kind: IC50

1) Cl.O=C(CN1C(=O)Cc2c([nH]c3ccc(Br)cc23)-c2ccc(Cl)cc21)N1CCNCC1 [Compound 20]; ~30 µM
2) CCN(CC)C(=O)CN1C(=O)Cc2c([nH]c3ccc(Br)cc23)-c2ccc(Cl)cc21 [Compound 12]; ~30 µM
3) O=C(CN1C(=O)Cc2c([nH]c3ccc(Br)cc23)-c2ccc(Cl)cc21)Nc1ccccc1 [Compound 19]; 30 µM

====

# Test target: LiTryS (Leishmania infantum trypanothione synthetase) (Leishmania infantum, UniProt A4I2Z3)
# Assay name: TryS activity end-point assay
# Format: biochemical
# Measurement parameters: read-out: IC50 value, LiTryS; ± 2σ; ∼30 assumed for 50 ± 5% inhibition at 30 µM
pIC50: −log10 of the molar value.
Quantity kind: pIC50

1. CN1CCN(C(=O)CN2C(=O)Cc3c([nH]c4ccc(Br)cc34)-c3ccc(Cl)cc32)CC1 [Compound 21]; 6.40
2. CC(C)(C)OC(=O)CN1C(=O)Cc2c([nH]c3ccc(Br)cc23)-c2ccc(Cl)cc21 [Compound 6]; 5.62
3. O=C(CN1C(=O)Cc2c([nH]c3ccc(Br)cc23)-c2ccc(Cl)cc21)Nc1ncco1 [Compound 18]; 4.70

====

Entries and their IC50
# Test target: LiTryS (Leishmania infantum trypanothione synthetase) (Leishmania infantum)
# Sequence (A4I2Z3 1-652): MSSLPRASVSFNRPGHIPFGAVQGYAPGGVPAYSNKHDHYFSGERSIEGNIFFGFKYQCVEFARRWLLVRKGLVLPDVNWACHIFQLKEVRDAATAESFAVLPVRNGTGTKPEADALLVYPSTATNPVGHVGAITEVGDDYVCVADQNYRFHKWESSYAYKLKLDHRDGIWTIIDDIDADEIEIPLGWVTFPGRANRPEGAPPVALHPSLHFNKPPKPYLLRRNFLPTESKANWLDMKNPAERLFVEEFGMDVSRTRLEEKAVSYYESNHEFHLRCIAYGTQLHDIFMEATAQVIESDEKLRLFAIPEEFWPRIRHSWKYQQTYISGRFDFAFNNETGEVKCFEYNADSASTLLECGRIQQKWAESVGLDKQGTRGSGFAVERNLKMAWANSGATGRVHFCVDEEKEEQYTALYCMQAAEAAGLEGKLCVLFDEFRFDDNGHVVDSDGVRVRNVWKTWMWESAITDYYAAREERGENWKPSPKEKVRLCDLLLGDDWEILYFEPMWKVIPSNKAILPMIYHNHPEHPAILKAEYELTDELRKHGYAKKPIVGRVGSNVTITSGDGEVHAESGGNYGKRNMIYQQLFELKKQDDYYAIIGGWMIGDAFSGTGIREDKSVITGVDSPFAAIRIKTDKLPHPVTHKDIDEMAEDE
# Assay name: TryS activity end-point assay
# Format: biochemical
# Measurement parameters: IC50 value, LiTryS, ± 2σ; ∼30 assumed for 50 ± 5% inhibition at 30 µM
Quantity kind: IC50

1. CN1CCN(CCNC(=O)CN2C(=O)Cc3c([nH]c4ccc(Br)cc34)-c3ccc(Cl)cc32)CC1; 1.1 µM
2. CCN(CC)CCNC(=O)CN1C(=O)Cc2c([nH]c3ccc(Br)cc23)-c2ccc(Cl)cc21; 0.5 µM
3. CN(C)C(=O)CN1C(=O)Cc2c([nH]c3ccc(Br)cc23)-c2ccc(Cl)cc21; 0.5 µM
4. NNC(=O)CN1C(=O)Cc2c([nH]c3ccc(Br)cc23)-c2ccc(Cl)cc21; 4 µM
5. O=C(CN1C(=O)Cc2c([nH]c3ccc(Br)cc23)-c2ccc(Cl)cc21)Nc1ccccc1; ~30 µM

====

# Test target: TcTryS (Trypanosoma cruzi, UniProt Q9GT49)
# Sequence (Q9GT49 1-647): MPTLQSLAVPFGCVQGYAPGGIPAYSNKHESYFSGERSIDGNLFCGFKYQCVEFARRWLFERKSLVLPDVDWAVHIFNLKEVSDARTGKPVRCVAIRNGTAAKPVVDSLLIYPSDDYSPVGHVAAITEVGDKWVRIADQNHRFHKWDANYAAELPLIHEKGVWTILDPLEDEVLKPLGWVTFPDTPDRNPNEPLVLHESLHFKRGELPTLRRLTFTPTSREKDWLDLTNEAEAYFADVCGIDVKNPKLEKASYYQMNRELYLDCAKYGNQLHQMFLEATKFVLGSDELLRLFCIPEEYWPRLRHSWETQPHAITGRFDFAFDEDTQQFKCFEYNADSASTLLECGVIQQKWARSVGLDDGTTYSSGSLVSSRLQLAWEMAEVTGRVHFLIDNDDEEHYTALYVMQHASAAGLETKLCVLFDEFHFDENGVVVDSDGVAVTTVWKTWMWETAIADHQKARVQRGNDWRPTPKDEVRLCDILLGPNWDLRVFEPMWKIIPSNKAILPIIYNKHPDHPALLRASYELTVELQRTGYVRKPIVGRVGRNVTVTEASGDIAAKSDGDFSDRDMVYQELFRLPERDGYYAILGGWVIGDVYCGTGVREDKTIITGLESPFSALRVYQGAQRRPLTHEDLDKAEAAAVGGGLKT
Below: a set of entries, each annotated with reported IC50.
Quantity kind: IC50 (µM)

1) CC(C)(C)OC(=O)N1CCN(CCNC(=O)CN2C(=O)Cc3c([nH]c4ccc(Br)cc34)-c3ccc(Cl)cc32)CC1 [Compound 34]; 20
2) CC(C)(C)OC(=O)NCCCCNC(=O)CN1C(=O)Cc2c([nH]c3ccc(Br)cc23)-c2ccc(Cl)cc21 [Compound 36]; 25
3) O=C(CN1C(=O)Cc2c([nH]c3ccc(Br)cc23)-c2ccc(Cl)cc21)Nc1nncs1 [Compound 16]; 30

====

# Tested on: L. braziliensis amastigotes
# Assay name: Macrophage infection assay, L. braziliensis amastigotes
# Type: cell-based, Leishmania braziliensis
# Measurement parameters: Leishmania braziliensis, Macrophage, 24 h, read-out: % infection by L. braziliensis at 10 µM
activity at 10 µM: recorded values
Quantity kind: activity at 10 µM (%)

1) O=C(CN1C(=O)Cc2c([nH]c3ccc(Br)cc23)-c2ccc(Cl)cc21)N1CCCC1; 68
2) CNC(=O)CN1C(=O)Cc2c([nH]c3ccc(Br)cc23)-c2ccc(Cl)cc21; 107
3) O=C(CN1C(=O)Cc2c([nH]c3ccc(Br)cc23)-c2ccc(Cl)cc21)NCCN1CCNCC1; 139
4) NCCCCNC(=O)CN1C(=O)Cc2c([nH]c3ccc(Br)cc23)-c2ccc(Cl)cc21; 116
5) CCN(CC)C(=O)CN1C(=O)Cc2c([nH]c3ccc(Br)cc23)-c2ccc(Cl)cc21; 82
6) O=C(CN1C(=O)Cc2c([nH]c3ccc(Br)cc23)-c2ccc(Cl)cc21)N1CCOCC1; 29
7) CC(C)(C)NC(=O)CN1C(=O)Cc2c([nH]c3ccc(Br)cc23)-c2ccc(Cl)cc21; 104
8) NCCNC(=O)CN1C(=O)Cc2c([nH]c3ccc(Br)cc23)-c2ccc(Cl)cc21; 68
